- Target under test: UniProtKB P00533
- Sequence (P00533 whole entry): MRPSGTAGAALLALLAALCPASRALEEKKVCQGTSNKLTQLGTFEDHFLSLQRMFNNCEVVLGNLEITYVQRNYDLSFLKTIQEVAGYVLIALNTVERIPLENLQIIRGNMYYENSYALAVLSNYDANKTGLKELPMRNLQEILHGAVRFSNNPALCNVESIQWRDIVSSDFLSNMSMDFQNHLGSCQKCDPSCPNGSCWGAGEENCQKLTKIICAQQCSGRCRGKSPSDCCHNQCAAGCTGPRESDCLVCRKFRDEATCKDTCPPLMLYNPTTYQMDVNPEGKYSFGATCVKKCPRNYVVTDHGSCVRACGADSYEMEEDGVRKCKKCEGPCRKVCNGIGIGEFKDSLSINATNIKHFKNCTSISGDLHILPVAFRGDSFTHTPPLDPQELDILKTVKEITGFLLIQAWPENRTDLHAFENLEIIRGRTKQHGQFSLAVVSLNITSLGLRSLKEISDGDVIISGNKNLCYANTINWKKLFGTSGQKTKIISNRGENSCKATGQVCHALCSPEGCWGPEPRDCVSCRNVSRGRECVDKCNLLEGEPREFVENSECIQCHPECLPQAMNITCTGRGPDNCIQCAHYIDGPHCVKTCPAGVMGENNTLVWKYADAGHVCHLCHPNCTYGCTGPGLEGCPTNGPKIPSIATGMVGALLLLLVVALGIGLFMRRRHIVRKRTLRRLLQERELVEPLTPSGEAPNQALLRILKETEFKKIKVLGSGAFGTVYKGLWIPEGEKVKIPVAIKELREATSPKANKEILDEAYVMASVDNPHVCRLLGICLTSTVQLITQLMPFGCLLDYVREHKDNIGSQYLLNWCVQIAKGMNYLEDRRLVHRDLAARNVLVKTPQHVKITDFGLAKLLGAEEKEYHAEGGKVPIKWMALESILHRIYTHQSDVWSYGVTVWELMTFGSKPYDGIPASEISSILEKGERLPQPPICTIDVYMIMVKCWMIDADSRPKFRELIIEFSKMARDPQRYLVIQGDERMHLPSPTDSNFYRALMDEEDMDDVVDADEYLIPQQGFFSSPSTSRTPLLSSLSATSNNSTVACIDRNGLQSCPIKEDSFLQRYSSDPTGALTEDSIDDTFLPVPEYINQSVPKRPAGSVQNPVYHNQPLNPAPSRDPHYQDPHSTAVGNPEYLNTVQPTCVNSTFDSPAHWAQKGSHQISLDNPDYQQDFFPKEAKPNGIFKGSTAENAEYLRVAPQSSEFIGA
Experimental endpoint: IC50

Enter reported IC50 observed with UniProtKB P00533 for N#Cc1c(Oc2ccc(F)c(NC(=O)Cc3cccc(C(F)(F)F)c3)c2)ccc2nc(NC(=O)C3CC3)sc12
> 10 µM

* * *

- Target under test: Serine/threonine-protein kinase Chk1 (Homo sapiens, UniProt O14757)
- Sequence (O14757 whole entry): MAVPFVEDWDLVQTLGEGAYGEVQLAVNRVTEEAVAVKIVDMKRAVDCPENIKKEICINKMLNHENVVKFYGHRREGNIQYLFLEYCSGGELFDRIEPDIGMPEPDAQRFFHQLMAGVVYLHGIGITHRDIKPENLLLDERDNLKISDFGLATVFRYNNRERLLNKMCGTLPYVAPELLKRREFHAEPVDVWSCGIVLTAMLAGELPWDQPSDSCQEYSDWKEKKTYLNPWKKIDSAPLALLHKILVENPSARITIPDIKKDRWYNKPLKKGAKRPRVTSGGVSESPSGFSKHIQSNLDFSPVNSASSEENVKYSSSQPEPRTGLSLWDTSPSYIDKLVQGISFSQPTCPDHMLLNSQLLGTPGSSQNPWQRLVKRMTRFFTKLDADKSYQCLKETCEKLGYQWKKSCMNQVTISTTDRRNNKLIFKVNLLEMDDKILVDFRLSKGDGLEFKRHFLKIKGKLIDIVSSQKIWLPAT
Experimental endpoint: pIC50
pIC50 (log units): -log10 of the concentration in mol/L.

Quick check: pIC50 of N#Cc1c(Oc2ccc(F)c(NC(=O)Cc3cccc(C(F)(F)F)c3)c2)ccc2nc(NC(=O)C3CC3)sc12 ?
5.85

* * *

- Target under test: Casein kinase I isoform delta (Homo sapiens)
- Sequence (P48730 whole entry, canonical isoform): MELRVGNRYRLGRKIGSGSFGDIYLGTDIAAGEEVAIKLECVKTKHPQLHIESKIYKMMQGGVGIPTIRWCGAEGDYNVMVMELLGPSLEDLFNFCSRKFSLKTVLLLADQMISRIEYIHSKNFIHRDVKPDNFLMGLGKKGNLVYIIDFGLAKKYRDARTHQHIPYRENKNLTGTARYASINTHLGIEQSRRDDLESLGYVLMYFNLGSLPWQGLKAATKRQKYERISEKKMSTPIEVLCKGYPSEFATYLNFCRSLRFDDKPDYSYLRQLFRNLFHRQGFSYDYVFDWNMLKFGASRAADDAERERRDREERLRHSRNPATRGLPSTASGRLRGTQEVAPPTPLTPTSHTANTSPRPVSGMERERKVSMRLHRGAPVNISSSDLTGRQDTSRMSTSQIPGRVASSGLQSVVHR
- Experiment notes: Inhibition of CK1delta (unknown origin) using CK1tide as substrate after 20 mins
pIC50: −log10 of the molar value.
Experimental endpoint: pIC50

Find the recorded pIC50 belonging to N#Cc1c(Oc2ccc(F)c(NC(=O)Cc3cccc(C(F)(F)F)c3)c2)ccc2nc(NC(=O)C3CC3)sc12 and report it.
< 5.00
